B1: Arginine-glutamic acid dipeptide repeats protein, residues 502 to 543; numbered along this chain, Q9P2R6 (parent)
chain: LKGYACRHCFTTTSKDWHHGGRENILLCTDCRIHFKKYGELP

Variants of: B1
Assay Method Text: abundance fitness (aPCA) (normalised: wild type 0, dead -1); higher = more abundant; growth selection in yeast, the domain comes from the species named
Applied Conditions: Homo sapiens
Quick reference: abundance fitness of the listed items.
Reported Metric: abundance fitness

mutant_name=Y38H value_observed=-0.111
mutant_name=H8Q value_observed=-0.307
mutant_name=K37P value_observed=-0.278
mutant_name=H18G value_observed=0.057
mutant_name=G39N value_observed=0.027
mutant_name=P42A value_observed=-0.367
mutant_name=H8F value_observed=-0.387
mutant_name=T29M value_observed=-0.192
mutant_name=L41F value_observed=0.271
mutant_name=R7E value_observed=0.064
mutant_name=K15D value_observed=-0.099
mutant_name=K37T value_observed=-0.032
mutant_name=R32E value_observed=-0.045
mutant_name=Y4I value_observed=-0.089
mutant_name=E40K value_observed=-0.044
mutant_name=L1S value_observed=-0.003
mutant_name=G3Y value_observed=-0.205
mutant_name=H8P value_observed=-0.836
mutant_name=I25N value_observed=-0.298
mutant_name=E23V value_observed=-0.338
mutant_name=K37W value_observed=-0.135
mutant_name=C28P value_observed=-0.853
mutant_name=G20V value_observed=-0.11
mutant_name=H8K value_observed=-0.368
mutant_name=K15N value_observed=-0.324
mutant_name=G3C value_observed=-0.226
mutant_name=R7D value_observed=-0.142
mutant_name=R22A value_observed=0.044
mutant_name=F10M value_observed=-0.083
mutant_name=D16F value_observed=-0.48
mutant_name=T11L value_observed=-0.375
mutant_name=R22Y value_observed=0.113
mutant_name=H34G value_observed=-0.193
mutant_name=R22G value_observed=-0.048
mutant_name=G39A value_observed=-0.108
mutant_name=A5V value_observed=-0.039
mutant_name=A5N value_observed=-0.116
mutant_name=T13R value_observed=0.012
mutant_name=H8E value_observed=-0.348
mutant_name=H19R value_observed=-0.047
mutant_name=G3W value_observed=-0.391
